test system: Candida albicans (IFO 0538); assay: Antifungal activity against Candida albicans, paper disc growth inhibition zone (Tables 5 and 6); type: cell-based; details: 48 h, pH 7, B medium (yeast nitrogen base agar, pH 7.0), 28° C., 2 days incubation; read-out: Inhibition zone diameter
Respond with MET for zone of inhibition at 1000 µg/mL values of 30 mm and above, NOT MET for values below.

Some entries whose results are on file:
> print(dat)
                                   compound  class.name
1  C[C@@H](Sc1nc2c(s1)CCC2)[C@](O)(Cn1cncn1)c1ccc(F)cc1F (relative stereo)     NOT MET
2   C[C@H](S)[C@@](O)(Cn1cncn1)c1ccc(F)cc1F         MET
3  C[C@H](S)[C@](O)(Cn1cncn1)c1ccc(F)cc1F [Compound 118]         MET
4  C[C@@H](SCCSCCn1cncn1)[C@](O)(Cn1cncn1)c1ccc(F)cc1F (relative stereo)     NOT MET
5  C[C@@H](SCc1ccncn1)[C@](O)(Cn1cncn1)c1ccc(F)cc1F         MET
6  C[C@@H](S)[C@@](O)(Cn1cncn1)c1ccc(F)cc1F     NOT MET
7  Cc1ncc(CS[C@H](C)[C@](O)(Cn2cncn2)c2ccc(F)cc2F)s1 (relative stereo) [Compound 53]         MET
8  CCn1ccnc1CS[C@H](C)[C@](O)(Cn1cncn1)c1ccc(F)cc1F (relative stereo) [Compound 46]     NOT MET

In: Is zone of inhibition at 1000 µg/mL for C[C@@H](SCc1cn(C)cn1)[C@](O)(Cn1cncn1)c1ccc(F)cc1F (relative stereo) at or above 30 mm?
Out: MET

In: Threshold query (zone of inhibition at 1000 µg/mL >= 30 mm) on OC(CSCCn1cncn1)(Cn1cncn1)c1ccc(F)cc1F (centres unmarked)
Out: NOT MET

---

system: Candida albicans (IFO 0538); assay: Antifungal activity against Candida albicans, paper disc growth inhibition zone (Tables 5 and 6); format: cell-based; details: 48 h, pH 7, B medium (yeast nitrogen base agar, pH 7.0), 28° C., 2 days incubation; read-out: Inhibition zone diameter
Listing of recorded zone of inhibition at 1000 µg/mL by entry.
Please reply with the bare figure in mm and do not write the unit itself.

The examples below pair each entry with its known result.
> print(dat)
                                   compound  data.value
1  Cc1oc(=O)oc1CS[C@H](C)[C@](O)(Cn1cncn1)c1ccc(F)cc1F (racemic) [Compound 56]          30
2  C[C@@H](SCc1nccn1CC(F)F)[C@](O)(Cn1cncn1)c1ccc(F)cc1F [Compound 109]          28
3  C[C@@H](SCc1ncc2n1CCC2)[C@](O)(Cn1cncn1)c1ccc(F)cc1F [Compound 97]          27
4  C[C@@H](SCc1nccn1CC(F)F)[C@](O)(Cn1cncn1)c1ccc(F)cc1F (relative stereo) [Compound 54]          25

In: What does the data say about its zone of inhibition at 1000 µg/mL? Entry: C[C@@H](SCc1nncn1C)[C@](O)(Cn1cncn1)c1ccc(F)cc1F (relative stereo) [Compound 33]
Out: 20

In: # lookup: zone of inhibition at 1000 µg/mL of C[C@@H](SCc1nccn1CC1CC1)[C@](O)(Cn1cncn1)c1ccc(F)cc1F (relative stereo) [Compound 51]
Out: 28

Hey, just so you know, these numbers are from patent US5405861A.
